STUDY TARGET: rI-FABP (SEQ ID NO: 3) variant L22P5E11, 38R 69T 72A 73K 106A (Rattus norvegicus, UniProt P02693, A70T/A74K/L39R/L73A/R107A)
Construct: 6xHis (C)
Sequence (P02693 with tags, fused parts or gaps L39R/A70T/L73A/A74K/R107A): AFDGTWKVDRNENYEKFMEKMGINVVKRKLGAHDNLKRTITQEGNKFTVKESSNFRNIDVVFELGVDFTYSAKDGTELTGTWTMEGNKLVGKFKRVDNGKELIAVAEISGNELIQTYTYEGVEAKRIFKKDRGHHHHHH
METHOD DESCRIPTION: fatty acid binding to L22P5E11
PROPERTY MEASURED: pKd
Kindly note that pKd refers to -log10 of the concentration in mol/L and answer with the value alone.

query: Given the compound CCCCC/C=C\C/C=C\CCCCCCCC(=O)O [Linoleate 18:2 (n-6), Linoleate] , write its reported pKd.
result: 8.17

query: Given the compound CCCCCCCC/C=C\CCCCCCCC(=O)O [Oleate 18:1 (n-9), Oleate] , write its reported pKd.
result: 8.51

---

STUDY TARGET: rat intestinal fatty acid binding protein (rI-FABP, SEQ ID NO: 3) variant L24P19C7, 14R 18L 38V 60R 73F 106C 115R 117D, SEQ ID NO: 36 (Rattus norvegicus, UniProt P02693, A74F/L39V/L73A/M19L/Q116R/R107C/V61R/Y118D/Y15R)
Construct: made in house
Sequence (P02693 with tags, fused parts or gaps Y15R/M19L/L39V/V61R/L73A/A74F/R107C/Q116R/Y118D): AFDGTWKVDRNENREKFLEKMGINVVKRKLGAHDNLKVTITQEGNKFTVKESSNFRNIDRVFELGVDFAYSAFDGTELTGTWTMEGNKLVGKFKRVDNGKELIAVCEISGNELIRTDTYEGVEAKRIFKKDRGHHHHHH
METHOD DESCRIPTION: bilirubin binding to L24P19C7 probe (fluorescence titration)
CONDITION DETAILS: Table 5, acrylodan
Description: Also described are analytical/mathematical methods for calibrating and using the bilirubin probes. […] Binding isotherms are performed in aqueous buffer by measuring the change in fluorescence of the bilirubin probes in response to increasing bilirubin concentrations (“titration data”). […] Fluorescence Sensor for the Quantification of Unbound Bilirubin Concentrations. […]
PROPERTY MEASURED: pKd
Kindly note that pKd refers to -log10 of the concentration in mol/L and answer with the value alone.

query: Given the compound C=CC1=C(C)/C(=C/c2[nH]c(Cc3[nH]c(/C=C4\NC(=O)C(C)=C4C=C)c(C)c3CCC(=O)O)c(CCC(=O)O)c2C)NC1=O , write its reported pKd.
result: 7.46

---

STUDY TARGET: rI-FABP (SEQ ID NO: 3) variant L24P19C7-K27C, 14R 18L 27C 38V 60R 73F 106C 115R 117D (Rattus norvegicus, UniProt P02693, A74F/K28C/L39V/L73A/M19L/Q116R/R107C/V61R/Y118D/Y15R)
METHOD DESCRIPTION: bilirubin binding to L24P19C7-K27C probe
CONDITION DETAILS: Table 5, acrylodan
PROPERTY MEASURED: Kd (nM)
Enter your answer as a number in nM; do not include the unit.

query: Given the compound C=CC1=C(C)/C(=C/c2[nH]c(Cc3[nH]c(/C=C4\NC(=O)C(C)=C4C=C)c(C)c3CCC(=O)O)c(CCC(=O)O)c2C)NC1=O [bilirubin] , write its reported Kd.
result: 242
